Target: 5-hydroxytryptamine receptor 2A (Homo sapiens)
Experiment: 5-hydroxytryptamine receptor 2A (HTR2A) small molecule agonists, cell-based qHTS assay (AID 1963587); further: nearly all actives have a fitted effect of over 30% in size
Conditions: HTR2A-CHO cells, calcium flux fluorescence, agonist mode; series mostly up to 76.8 µM
Records with an inconclusive call do not appear. Active and inactive are the calls of the source. The call rests on the fitted dose curve.
ENDPOINT LABEL: activation

Sample records with activation:
{"columns": ["COMPOUND", "ENDPOINT LABEL", "MEASURED RESULT"],
 "data": [
  ["C=C(C)C(=O)OCC[N+](C)(C)C", "activation", "inactive"],
  ["O=S(=O)(Cl)c1c(Cl)cccc1Cl", "activation", "inactive"],
  ["CC(C)(C)C1CCC(=O)CC1", "activation", "inactive"],
  ["Nc1ccc(S(=O)(=O)NCc2ccccc2)cc1", "activation", "inactive"]
]}

Requested read-out: activation. Entry: "CC(C)=CC(=O)O"
inactive

Can you check "[Cl][Sc]([Cl])[Cl]" next?
inactive

Try this compound too: "CCCCCCCCCI"
inactive

Likewise for "CCCCCCOC(=O)CCCCC(=O)OCCCCCC" ?
inactive

Same question, "Cc1nc(C)nc(N2C[C@@H](C)N(c3ccnc([C@@H](C)O)n3)[C@@H](C)C2)n1" this time
inactive

* * *

Target: Muscarinic acetylcholine receptor M1 (Homo sapiens) (UniProt P11229)
Sequence (P11229 whole entry, looked up): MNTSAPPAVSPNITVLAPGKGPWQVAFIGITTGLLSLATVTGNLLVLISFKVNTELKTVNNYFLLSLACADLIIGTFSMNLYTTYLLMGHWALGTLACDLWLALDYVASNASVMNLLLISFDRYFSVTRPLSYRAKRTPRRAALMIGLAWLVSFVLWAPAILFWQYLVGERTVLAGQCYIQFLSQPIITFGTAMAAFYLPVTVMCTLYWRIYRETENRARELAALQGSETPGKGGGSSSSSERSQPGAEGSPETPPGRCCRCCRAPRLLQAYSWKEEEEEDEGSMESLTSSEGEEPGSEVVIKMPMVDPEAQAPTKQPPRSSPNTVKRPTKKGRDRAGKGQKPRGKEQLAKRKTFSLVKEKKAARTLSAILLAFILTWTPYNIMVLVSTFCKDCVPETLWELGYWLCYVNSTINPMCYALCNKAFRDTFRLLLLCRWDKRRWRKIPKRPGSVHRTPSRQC
Experiment: Cholinergic receptor muscarinic 1 (CHRM1) small molecule antagonists, cell-based qHTS assay (AID 1963588); further: nearly all actives have a fitted effect of over 40% in size; further: potency means the concentration at half of the fitted maximal effect
Conditions: CHRM1-CHO antagonist mode, calcium flux fluorescence; series mostly up to 61.5 µM
Records with an inconclusive call do not appear. Calls of active or inactive are those of the source. The call rests on the fitted dose curve.
ENDPOINT LABEL: Potency

Look over these answered cases.
{"columns": ["COMPOUND", "SYSTEM", "Potency"],
 "data": [
  ["O=C(O)Cc1sc(-c2ccccc2)nc1-c1ccc(Cl)cc1", "Muscarinic acetylcholine receptor M1 (Homo sapiens) (UniProt P11229)", "inactive"],
  ["C=CC/C=C/C", "Muscarinic acetylcholine receptor M1 (Homo sapiens) (UniProt P11229)", "inactive"],
  ["COc1cc2c(cc1OC)-c1cc3ccc(OC)c(OC)c3c[n+]1CC2", "Muscarinic acetylcholine receptor M1 (Homo sapiens) (UniProt P11229)", "inactive"],
  ["CCCCCCCC(=O)OCC", "Muscarinic acetylcholine receptor M1 (Homo sapiens) (UniProt P11229)", "inactive"],
  ["CC1c2ccccc2CN1NC(=O)c1ccc(Cl)c(S(N)(=O)=O)c1 (centres undefined)", "Muscarinic acetylcholine receptor M1 (Homo sapiens) (UniProt P11229)", "inactive"],
  ["CC(C)C/C=C(\\C=O)c1ccccc1", "Muscarinic acetylcholine receptor M1 (Homo sapiens) (UniProt P11229)", "inactive"]
]}

Give the measured Potency of "O=C(Nc1ccc(Cl)c(Cl)c1)C1CC1" .
inactive

Try "CCCCOCCOC(=O)c1cccnc1" next.
inactive

Thanks! And "CN1CCN(c2cc3c(cc2F)c(=O)c(C(=O)O)cn3-c2ccc(F)cc2)CC1" ?
inactive

Also "Cc1ccc2c(c1)C(=O)c1ccccc1C2=O" , if possible.
inactive

// repeat for "CCN(CC)C(=O)N(CC)CC" and report
inactive

Same for "O=C(O)CCN(C1(C(=O)NO)CCCC1)S(=O)(=O)c1ccc(Oc2ccc(F)cc2)cc1"
inactive

Another compound: "O=C(O)c1cccc(N(Cc2cccnc2)c2ccc(OC(F)F)c(OC(F)F)c2)c1"
inactive

What about this compound? "Oc1ccc2c(c1)CCC2"
inactive

* * *

Target: 5-hydroxytryptamine receptor 2A (Homo sapiens)
Experiment: 5-hydroxytryptamine receptor 2A (HTR2A) small molecule antagonists, cell-based qHTS assay (AID 1963586); further: nearly all actives have a fitted effect of over 45% in size
Conditions: HTR2A-CHO cells, DOI-induced calcium flux, fluorescence; series mostly up to 61.5 µM
Results filed as inconclusive are left out. The source made the active and inactive calls. Calls come from the whole dose curve.
Outcome field: choose from active, inactive

{"columns": ["COMPOUND", "CLASS LABEL"],
 "data": [
  ["CCOC(=O)C(C)(C)C", "inactive"],
  ["CCCCC", "inactive"],
  ["CC(C)c1cc(C(C)C)cc(C(C)C)c1", "inactive"],
  ["Cc1cccc(C)c1C", "inactive"]
]}

In this assay, the call recorded for "CCOC(=O)[C@H](CCc1ccccc1)N[C@@H](C)C(=O)N(CC(=O)O)C1Cc2ccccc2C1" was what?
inactive

Now the compound "O=S(=O)(O)c1ccc(O)c2ncccc12"
inactive

Request: "CCc1cccc(CC)c1"
inactive

Input "CC(C)=CCOC(=O)c1ccccc1"
inactive

Consider next the compound "O=c1[nH]sc2cc(Cl)ccc12" in the same way.
inactive

What would you report for "CO[Si](CCCn1c(=O)n(CCC[Si](OC)(OC)OC)c(=O)n(CCC[Si](OC)(OC)OC)c1=O)(OC)OC" ?
inactive

Cool, now "Cc1ncc(CO)c(C=O)c1O"
inactive

Quick one: "O=C(OOC(=O)c1ccccc1)c1ccccc1"
inactive

Same question for "CC(C)(C)C(=O)/C=C/c1ccc(Cl)cc1" please.
inactive

// same read-out, input: "CC/C=C\CCCCO"
inactive

What do we get for "O=CC(=O)c1ccccc1" ?
inactive

Proceed to "CN(C)CCCOc1nn(Cc2ccccc2)c2ccccc12"
inactive

* * *

Target: Beta-2 adrenergic receptor (Homo sapiens) (UniProt P07550)
Sequence (P07550 whole entry, looked up): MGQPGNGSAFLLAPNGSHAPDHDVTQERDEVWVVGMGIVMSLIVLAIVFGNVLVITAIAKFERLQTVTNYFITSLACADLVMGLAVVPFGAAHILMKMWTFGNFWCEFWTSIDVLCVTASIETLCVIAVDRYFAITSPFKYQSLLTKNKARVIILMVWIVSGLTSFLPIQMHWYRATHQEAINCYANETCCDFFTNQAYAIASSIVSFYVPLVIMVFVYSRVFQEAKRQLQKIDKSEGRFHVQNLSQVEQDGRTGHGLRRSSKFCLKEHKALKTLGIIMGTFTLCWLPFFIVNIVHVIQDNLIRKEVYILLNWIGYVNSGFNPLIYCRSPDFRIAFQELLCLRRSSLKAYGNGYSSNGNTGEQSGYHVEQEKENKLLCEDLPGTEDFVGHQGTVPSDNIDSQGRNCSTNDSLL
Test: Adrenergic beta2 receptor (ADRB2) small molecule agonists, cell-based qHTS assay (AID 1963593);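 further: CHO cells stably overexpressing human ADRB2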
Conditions: CHO-ADRB2 cells, cAMP HTRF, 30 min; series mostly up to 42.5 µM
Results filed as inconclusive are left out. Calls of active or inactive are those of the source. The call rests on the fitted dose curve.
ENDPOINT LABEL: outcome

These solved cases illustrate the format of a correct answer.
{"columns": ["COMPOUND", "ENDPOINT LABEL", "MEASURED RESULT"],
 "data": [
  ["C[C@@]12C(=O)OC(=O)[C@]1(C)C1CCC2O1", "outcome", "inactive"],
  ["CCOCC(O)COc1ccc(NC(=O)CC[S+](C)C)cc1 (stereo not given)", "outcome", "inactive"],
  ["NC(=O)c1ccccc1[N+](=O)[O-]", "outcome", "inactive"],
  ["Cc1cc(NS(=O)(=O)c2ccc(N)cc2)nc(C)n1", "outcome", "inactive"],
  ["Nc1nc2c(ncn2COCCO)c(=O)[nH]1", "outcome", "inactive"],
  ["CCc1nnc(NS(=O)(=O)c2ccc(N)cc2)s1", "outcome", "inactive"]
]}

# input compound: "Nc1nc(-c2ccc([N+](=O)[O-])cc2)cs1" ; wanted: its outcome
inactive

Same thing, different compound: "C=CCn1c(=O)n(CC=C)c(=O)n(CC=C)c1=O"
inactive

* * *

Test: p53 small molecule agonists, cell-based qHTS assay with rat liver microsomes (AID 1963578)
Conditions: HCT-116 p53RE-bla, beta-lactamase ratio, 16 h; series mostly up to 66 µM
Inconclusive results are not listed. Active and inactive are the calls of the source. Calls come from the whole dose curve.
ENDPOINT LABEL: activation

Observe how each entry below is paired with its result.
{"columns": ["COMPOUND", "MEASURED RESULT"],
 "data": [
  ["CCOC(=O)COc1ccc(C)cc1", "inactive"],
  ["CCNC(=O)C(C)OC(=O)Nc1ccccc1 (centres undefined)", "inactive"],
  ["CCCCCCCCCCCCCCCC/C=C/C1CC(=O)OC1=O (centres undefined)", "inactive"],
  ["Cc1ccc(Cl)cc1Cl", "inactive"],
  ["CCCCCCCCCOC(=O)c1ccc(O)cc1", "inactive"]
]}

Tell me the measured activation of CCCC(C)C=O (centres undefined) , please.
inactive

Likewise for "OC[C@H](Cc1cccc(O)c1)[C@H](CO)Cc1cccc(O)c1" ?
inactive

Ok, now COc1ccc2[nH]c(S(=O)Cc3ncc(C)c(OC)c3C)nc2n1 (centres undefined)
inactive

Similarly, C/C=C(\C)C(=O)OCCC(C)CCC=C(C)C (centres undefined) ?
inactive

Can you check "Cc1c(N)cccc1[N+](=O)[O-]" next?
inactive

* * *

Target: Muscarinic acetylcholine receptor M1 (Homo sapiens)
Test: Cholinergic receptor muscarinic 1 (CHRM1) small molecule antagonists, cell-based qHTS assay (AID 1963588); further: nearly all actives have a fitted effect of over 40% in size
Settings: CHRM1-CHO antagonist mode, calcium flux fluorescence; series mostly up to 61.5 µM
Description: National Center for Advancing Translational Sciences [NCATS] Division of Preclinical Innovation [DPI] U.S. Environmental Protection Agency [EPA] National Institutes of Environmental Health Sciences [NIEHS] National Toxicology Program [NTP] U.S. Food and Drug Administration [FDA] The CHRM1 is a muscarinic receptor. […] The CHRM1-CHO Calcium Flux Assay is a homogeneous fluorescence-based assay for detecting the intracellular calcium level using FDSS kinetic plate reader system. […]
Results filed as inconclusive are left out. Calls of active or inactive are those of the source. The call rests on the fitted dose curve.
Classes to choose from: Yes (active), No (inactive)

Here's what some known entries look like.
{"columns": ["MOLECULE", "CLASS LABEL"],
 "data": [
  ["OC1(c2ccccc2)CCNCC1", "No"],
  ["CCCCCCCCCCOCC(O)CN (stereo not given)", "No"],
  ["Oc1ccc(Cl)c2cccnc12", "No"],
  ["CC(C)=CCC1C(=O)N(c2ccccc2)N(c2ccccc2)C1=O", "No"]
]}

Record request — test call for "C/C=C(\C)C=O"
No

Can you check "C[C@H]1C[C@H]2[C@@H]3CCC4=CC(=O)C=C[C@]4(C)[C@H]3C(=O)C[C@]2(C)[C@@]1(O)C(=O)CO" next?
No

Query "COc1ccc(OC(=O)N(CC(=O)O)Cc2ccc(OCCc3nc(-c4ccccc4)oc3C)cc2)cc1" next
No

Here is the next molecule: C=CC(C)(O)CCCC(C)CCCC(C)CCCC(C)C (stereo not given)
No

Consider next the molecule O[C@@H](COc1cccc2ncccc12)CN1CCN(C2c3ccccc3[C@@H]3[C@H](c4ccccc42)C3(F)F)CC1 (stereo not given in full) in the same way.
Yes
